Target chain: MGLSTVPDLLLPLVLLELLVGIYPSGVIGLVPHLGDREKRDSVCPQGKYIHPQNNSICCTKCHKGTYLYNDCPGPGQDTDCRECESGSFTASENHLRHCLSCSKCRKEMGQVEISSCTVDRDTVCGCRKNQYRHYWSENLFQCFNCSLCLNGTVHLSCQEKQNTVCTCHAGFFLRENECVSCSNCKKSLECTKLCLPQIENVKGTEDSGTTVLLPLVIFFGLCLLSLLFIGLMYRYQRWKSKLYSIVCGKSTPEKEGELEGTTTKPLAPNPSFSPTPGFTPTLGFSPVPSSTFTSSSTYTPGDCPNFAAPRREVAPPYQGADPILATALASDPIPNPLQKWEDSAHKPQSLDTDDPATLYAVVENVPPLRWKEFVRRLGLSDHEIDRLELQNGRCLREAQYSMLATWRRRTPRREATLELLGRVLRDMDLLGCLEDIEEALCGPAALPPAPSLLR
QUANTITY_KIND: IC50 (nM)
Expressed in nM, but write only the number.

## Task Indicate its recorded IC50; the molecule in question is `C=CCn1c(S)c2c(=C)c3c(OC)cc(OC)cc3n2c1=S`
## Result 210

## Task Consider the molecule `C=CCn1c(S)c2c(=C)c3c(OC)cc(OC)cc3n2c1=O` and give its recorded IC50.
## Result 210
